For each of the compounds below, state its growth inhibition.
assay protocol: NCI Yeast Anticancer Drug Screen. Data for the sgs1 mgt1 strain (AID 161);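 further: 0% = growth of cultures given vehicle only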
test settings: S. cerevisiae sgs1 mgt1 strain, at 50.0 µM, active compounds read high
Compounds without any hit were thinned out: in the full panel of roughly 79,000, 15% have a hit. Active and inactive are the calls of the source. No stated cut-off is given here; in the data, active means growth inhibition above about 70%; inactive means the rest.

The reported growth inhibition of the compound COc1cc(N=Nc2ccccc2)cc(/C=N\NC(=S)Nc2cccc(C)c2)c1O was 29.8% (inactive)

O=Nc1ccc(O)c2ncccc12 has a reported growth inhibition of 15.7% (inactive)

Short answer for O=c1c(O)c(-c2ccccc2)oc2c(CP(=O)(O)O)cccc12 : growth inhibition was -17.3% (inactive)

Field growth inhibition (entry CSc1ccc(NC(=O)c2cccc([N+](=O)[O-])c2C(=O)O)cc1 ) reads 13.2% (inactive)

Recorded result, O=c1[nH]cnc2c1CN(c1ccc(Cl)cc1)C2 , growth inhibition: -11.3% (inactive)

compound CCNc1nc2c(N)ncnc2n1C1OC(CO)C(O)C1O (stereo not given) , growth inhibition observed: 6.45% (inactive)

What the record says about CCCCCOC(=O)c1cccnc1 : growth inhibition is -15% (inactive)

Entry CCCCB1OB(CCCC)OB(CCCC)O1 ; growth inhibition = -6.2% (inactive)

Record Cc1c(Br)cc(Br)c(O)c1Br , field growth inhibition: 23.7% (inactive)

growth inhibition reading for COc1cccc2cc(C(=O)Nc3ccccc3)c(=N)oc12 : -31% (inactive)

Memo: Nc1ccc(C2=Nc3ccccc3SC(c3ccccc3O)C2)cc1 (stereo not given) , reported growth inhibition: 11.5% (inactive)

compound NC(=S)N/N=C1\CCCCC1C(O)(C(F)(F)Cl)C(F)(F)Cl (stereo not given) , growth inhibition observed: -19.1% (inactive)

growth inhibition in this record for C=C1C(=O)OC2CC(=C)C3CC=C(C)C3CC12 (stereo not given) : 19% (inactive)

growth inhibition reported for this compound O=C(NNC(=O)C(Oc1ccccc1)c1ccccc1)C(Cl)Cl (stereo not given) : 0.55% (inactive)

growth inhibition recorded for this compound, COc1cc(C(C)O)c[n+](CCc2c[nH]c3ccccc23)c1 (stereo not given) , is -45.9% (inactive)

Notebook: O=C1C2Cc3ccccc3CN2C(=O)N1CCN1CCCC1 (stereo not given) , growth inhibition read as -12.1% (inactive)

Recorded growth inhibition (compound CCOC(=O)NN(C(=O)OCC)C(C(=O)C1=CCCCC1)N(NC(=O)OCC)C(=O)OCC ): 4.5% (inactive)

Reported growth inhibition for COc1ccc(C2(C)OC(=O)c3ccccc32)c2ccccc12 (stereo not given) was 46.3% (inactive)

O=C(O)c1cnc2cccc([N+](=O)[O-])c2c1 has a reported growth inhibition of 0.2% (inactive)

Query O=C(O)c1ccccc1CC(C(=O)O)C(=O)O yields growth inhibition of 3% (inactive)

Kindly note the recorded growth inhibition for CC(O)CC1CC(=O)CCC1=O (stereo not given) , which is -10.7% (inactive)

Item: CS(=O)(=O)OC[C@@H](O)[C@@H](O)COS(C)(=O)=O | growth inhibition: -1.85% (inactive)

get_value(item= CC1=C(C(=O)NCc2ccccc2)C(c2ccccc2C)C(C(=O)NCc2ccccc2)=C(C)N1 , readout=growth inhibition) returns 31.6% (inactive)

The recorded growth inhibition for Cc1cc(-c2ccccc2)cc(C[n+]2ccccc2)[n+]1-c1ccccn1 is 9.2% (inactive)

Per the record, C=CCNC(=O)N(CCCCC(NC(C)=O)C(=O)NCc1ccccc1)Cc1ccccc1 (stereo not given) has growth inhibition of -12.7% (inactive)

So for COc1ccc(C(CC(C)(C)C)c2ccc(OC)cc2)cc1 , the logged growth inhibition turned out to be 5.15% (inactive)

Noted for CC(=O)NC(NCCN)(c1ccccc1)c1ccccc1 : its growth inhibition reads -8.1% (inactive)

// growth inhibition lookup, compound = CC(=O)OC1c2ccccc2C(=O)C1(OC(C)=O)c1ccccc1 (stereo not given) , result: 12.7% (inactive)

Record O=C(O)C(=O)Cc1cccc(Cl)c1[N+](=O)[O-] , field growth inhibition: 13.4% (inactive)

Record summary for C=C(C)C(=O)N1c2ccc(OC)cc2CC1C(=O)OCC (stereo not given) : reported growth inhibition = 7.05% (inactive)

Per the records, this compound ( CCCCCCCCCCCCCCO ) has growth inhibition equal to -19.7% (inactive)

Noted for Cn1c(N)c(N=Cc2ccc(Cl)cc2)c(=O)n(C)c1=O : its growth inhibition reads -5.5% (inactive)

For record CC(C)C1=CC(=Nc2ccc(N(C)C)cc2)C=CC1=O the listed growth inhibition is 9.5% (inactive)

// growth inhibition lookup, compound = O=C(O)[C@@H]1[C@H](C(=O)O)[C@H](C(=O)O)C[C@@H]1C(=O)O , result: -24.9% (inactive)

// growth inhibition lookup, compound = Nc1ncc2ncn(CCO)c2n1 , result: 23.1% (inactive)
